assay: Drying and humidity exposure (>90% RH) with XRPD; conditions: >90% RH, overnight / one day, XRPD
Structures can show the parent of a compound that is named as a salt.
Measured Quantity: physical stability on humidity exposure

>>> print(df.to_string())
                                   compound       result
0  CCOC1(c2ccc(-c3cc4c(N5CCN(C(=O)O[C@@H]6CCOC6)CC5)ccnn4c3)nc2)CCN(C(C)C)CC1 [Besylate]  deliquesced
1  CCOC1(c2ccc(-c3cc4c(N5CCN(C(=O)O[C@@H]6CCOC6)CC5)ccnn4c3)nc2)CCN(C(C)C)CC1 [bis-HCl]  deliquesced

====

assay: Solubility in organic solvent systems at room temperature; type: physicochemical; details: organic solvent or mixture, most organic solvents tested
Measured Quantity: solubility

Record CCOC1(c2ccc(-c3cc4c(N5CCN(C(=O)O[C@@H]6CCOC6)CC5)ccnn4c3)nc2)CCN(C(C)C)CC1 [Compound (I)] . Reported solubility: > 200 mg/mL

====

assay: Solubility at 37° C. in water and simulated fluids (FaSSIF, FaSSGF); format: physicochemical; conditions: water, FaSSIF and FaSSGF (all fluids), thermodynamic from solid, in all fluids
Measured Quantity: solubility

Input CCOC1(c2ccc(-c3cc4c(N5CCN(C(=O)O[C@@H]6CCOC6)CC5)ccnn4c3)nc2)CCN(C(C)C)CC1 [Succinate Form A] . Output solubility: > 22 mg/mL
